Recorded IC50, one value per entry.
# System: BGC-823
# Test Method Notes: Cytotoxicity against human BGC823 cells by MTT assay
# Format: functional, cell-based
Endpoint: IC50 (nM)

Compound	Endpoint	Unit Name	Result Number
CC(=O)O[C@H]1[C@H](OC(C)=O)[C@]23CO[C@@]4(CC[C@@H]5[C@@]6(C)CC[C@H](O[C@@H]7OC[C@H](O[C@@H]8O[C@H](CO)[C@@H](O)[C@H](O)[C@H]8O[C@@H]8OC[C@@H](O)[C@H](O)[C@H]8O)[C@H](O)[C@H]7O[C@@H]7O[C@H](CO)[C@@H](O)[C@H](O)[C@H]7O)C(C)(C)[C@@H]6CC[C@@]5(C)[C@]4(C)C[C@H]2O)[C@@H]3CC1(C)C [CLETHROIDOSIDE F]	IC50	nM	1950
CC1(C)[C@@H](O[C@@H]2OC[C@H](O[C@@H]3O[C@H](CO)[C@@H](O)[C@H](O)[C@H]3O)[C@H](O)[C@H]2O[C@@H]2O[C@H](CO)[C@@H](O)[C@H](O)[C@H]2O)CC[C@]2(C)[C@H]3CC[C@]45OC[C@@]6(CC[C@](C)(CO)C[C@H]64)[C@H](O)C[C@@]5(C)[C@]3(C)CC[C@@H]12 [ARDISIANOSIDE E]	IC50	nM	1140
